# pIC50 per record follows
# target-or-test-system: human NR1/NR2B (Homo sapiens (Human), UniProt Q05586+Q13224)
# Sequence (Q13224 27-1484, other chains not shown): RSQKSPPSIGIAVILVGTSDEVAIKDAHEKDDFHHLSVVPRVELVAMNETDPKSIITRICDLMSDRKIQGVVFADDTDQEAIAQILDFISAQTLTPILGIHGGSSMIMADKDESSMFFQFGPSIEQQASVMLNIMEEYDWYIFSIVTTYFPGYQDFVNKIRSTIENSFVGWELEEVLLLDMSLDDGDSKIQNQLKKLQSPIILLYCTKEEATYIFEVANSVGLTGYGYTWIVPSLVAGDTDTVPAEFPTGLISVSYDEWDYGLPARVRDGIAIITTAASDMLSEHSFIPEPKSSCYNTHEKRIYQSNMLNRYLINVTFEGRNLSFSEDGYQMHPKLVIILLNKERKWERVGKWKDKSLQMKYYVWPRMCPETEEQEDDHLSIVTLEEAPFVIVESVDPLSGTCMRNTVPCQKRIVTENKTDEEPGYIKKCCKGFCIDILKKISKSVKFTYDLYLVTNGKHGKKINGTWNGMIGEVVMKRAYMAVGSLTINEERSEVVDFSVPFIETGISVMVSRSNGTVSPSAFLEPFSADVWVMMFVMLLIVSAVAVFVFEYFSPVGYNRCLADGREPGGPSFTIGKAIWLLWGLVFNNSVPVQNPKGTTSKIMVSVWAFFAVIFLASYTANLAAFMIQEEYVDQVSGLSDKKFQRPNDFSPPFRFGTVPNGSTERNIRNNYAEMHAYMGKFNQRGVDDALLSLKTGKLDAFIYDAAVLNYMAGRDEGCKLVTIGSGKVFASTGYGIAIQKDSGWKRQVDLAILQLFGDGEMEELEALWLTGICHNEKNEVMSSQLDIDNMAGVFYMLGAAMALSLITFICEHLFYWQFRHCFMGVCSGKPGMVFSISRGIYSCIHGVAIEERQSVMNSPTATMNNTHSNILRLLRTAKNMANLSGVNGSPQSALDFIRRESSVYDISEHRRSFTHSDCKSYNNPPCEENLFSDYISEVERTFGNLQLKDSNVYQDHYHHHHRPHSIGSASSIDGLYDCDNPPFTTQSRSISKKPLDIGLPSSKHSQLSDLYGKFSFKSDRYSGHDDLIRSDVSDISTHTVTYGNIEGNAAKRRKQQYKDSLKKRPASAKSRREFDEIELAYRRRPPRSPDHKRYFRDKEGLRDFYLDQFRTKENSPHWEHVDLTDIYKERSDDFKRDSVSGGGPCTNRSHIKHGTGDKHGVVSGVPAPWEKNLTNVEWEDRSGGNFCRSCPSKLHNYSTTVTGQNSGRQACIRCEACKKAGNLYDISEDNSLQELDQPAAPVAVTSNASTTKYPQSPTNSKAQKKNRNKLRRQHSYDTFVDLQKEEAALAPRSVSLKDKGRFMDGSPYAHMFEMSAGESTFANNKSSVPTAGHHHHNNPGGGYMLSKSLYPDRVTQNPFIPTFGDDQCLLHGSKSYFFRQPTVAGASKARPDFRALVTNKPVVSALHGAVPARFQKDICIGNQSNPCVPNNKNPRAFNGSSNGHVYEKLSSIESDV
# experiment-notes: NR2B antagonist activity: calcium influx (Fluo-4) assay in HEK293 cells
# Format: cell-based
# stated-conditions: Table 1.4A; read-out: NR2B IC50
# Procedure: Activation of the NR2A or NR2B subtype of NMDA receptor with glutamate as an agonist and glycine co-agonist on these cells results in calcium influx, which can be monitored with fluorescent indicator Fluo-4. For experiments, the cells were seeded onto poly-D-lysine-coated 96-well black plates with clear bottom (Corning) at a density of ˜50,000 cells/well. […] The cell plates were placed onto an FDSS Cell fluorescence reader (Hamamatsu). […]
By convention, pIC50 is the negative base-10 log of a molar concentration.

Example cases with answers are listed next.
FC(F)(F)c1ccc(C(F)(F)CN2CCC(Nc3ncnc4[nH]ccc34)CC2)nc1; 7.52
FC(F)(F)c1ccc(C(F)(F)CN2CCC(Nc3ncnc4[nH]ccc34)CC2)cn1; 7.35

stdin: // Input: FC(F)(F)c1ccc(C(F)(F)CN2CCC(Nc3ncnc4[nH]ccc34)CC2)cc1 . Output its pIC50 only.
stdout: 7.19

====

# target-or-test-system: human NR1/NR2B (Homo sapiens (Human), UniProt Q05586+Q13224)
# experiment-notes: NR2B antagonist activity: calcium influx (Fluo-4) assay in HEK293 cells
# Assay type: cell-based
# stated-conditions: Table 1.3A; read-out: hNR2B IC50
# pIC50 per record follows
By convention, pIC50 is the negative base-10 log of a molar concentration.

FC(F)(F)c1ccc(C(F)(F)CN2CCC(Nc3ncnc4[nH]ccc34)CC2)nc1; 7.52
FC(F)c1ccc(C(F)(F)CN2CCC(Nc3ncnc4[nH]ccc34)CC2)nc1; 7.51
FC(F)(F)c1ccc(C(F)(F)CN2CCC(Nc3ncnc4[nH]ccc34)CC2)cc1; 7.19

Switching to the query record.
stdin: // Input: FC(F)(F)c1ccc(C(F)(F)CN2CCC(Nc3ncnc4[nH]ccc34)CC2)cn1 . Output its pIC50 only.
stdout: 7.35

====

# pKi per record follows
# target-or-test-system: native rat brain NR2B receptors (Rattus norvegicus (Rat), UniProt P35439+Q00960)
# Sequence (Q00960 27-1482, other chains not shown): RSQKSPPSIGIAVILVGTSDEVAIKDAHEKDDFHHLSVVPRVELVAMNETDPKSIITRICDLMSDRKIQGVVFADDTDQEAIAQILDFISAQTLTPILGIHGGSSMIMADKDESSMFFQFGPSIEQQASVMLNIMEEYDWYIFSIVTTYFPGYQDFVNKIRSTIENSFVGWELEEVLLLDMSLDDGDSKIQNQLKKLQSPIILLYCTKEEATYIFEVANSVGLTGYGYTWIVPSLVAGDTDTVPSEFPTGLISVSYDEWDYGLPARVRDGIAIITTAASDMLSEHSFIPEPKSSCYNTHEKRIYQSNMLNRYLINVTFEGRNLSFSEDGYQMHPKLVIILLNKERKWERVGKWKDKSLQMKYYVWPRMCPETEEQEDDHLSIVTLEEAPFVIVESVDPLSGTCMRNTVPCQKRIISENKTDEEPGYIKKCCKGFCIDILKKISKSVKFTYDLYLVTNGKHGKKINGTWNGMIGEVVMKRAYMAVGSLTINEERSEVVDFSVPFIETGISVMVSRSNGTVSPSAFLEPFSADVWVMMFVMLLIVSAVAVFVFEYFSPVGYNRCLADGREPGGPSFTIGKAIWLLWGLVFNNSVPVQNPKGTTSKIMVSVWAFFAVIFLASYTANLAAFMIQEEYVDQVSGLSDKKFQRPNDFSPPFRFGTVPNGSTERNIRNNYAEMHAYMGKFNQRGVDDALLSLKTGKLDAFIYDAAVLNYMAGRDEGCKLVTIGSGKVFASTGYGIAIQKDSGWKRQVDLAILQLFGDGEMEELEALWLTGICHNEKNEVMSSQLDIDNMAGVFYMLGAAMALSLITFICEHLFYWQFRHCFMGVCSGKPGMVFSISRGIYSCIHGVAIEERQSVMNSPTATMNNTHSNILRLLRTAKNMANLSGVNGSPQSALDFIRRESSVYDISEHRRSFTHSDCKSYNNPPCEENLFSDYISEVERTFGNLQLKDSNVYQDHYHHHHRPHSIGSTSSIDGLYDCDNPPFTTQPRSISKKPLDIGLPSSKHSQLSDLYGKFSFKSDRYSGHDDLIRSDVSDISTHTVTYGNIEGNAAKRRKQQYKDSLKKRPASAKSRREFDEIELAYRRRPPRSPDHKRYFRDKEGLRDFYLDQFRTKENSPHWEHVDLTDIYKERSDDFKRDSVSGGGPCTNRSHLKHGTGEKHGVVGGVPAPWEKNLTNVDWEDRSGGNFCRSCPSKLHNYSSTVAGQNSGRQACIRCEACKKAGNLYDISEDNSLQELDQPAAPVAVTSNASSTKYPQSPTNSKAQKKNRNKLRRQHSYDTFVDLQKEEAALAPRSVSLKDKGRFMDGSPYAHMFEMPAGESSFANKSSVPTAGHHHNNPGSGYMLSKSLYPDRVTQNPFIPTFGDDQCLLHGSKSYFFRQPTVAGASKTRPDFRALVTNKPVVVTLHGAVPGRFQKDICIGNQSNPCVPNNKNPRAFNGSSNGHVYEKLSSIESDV
# experiment-notes: NR2B radioligand binding assay in rat brain using [3H] (E)-N1-(2-methoxybenzyl)-cinnamidine
# stated-conditions: rat brain NR2B receptors; mean of replicates; read-out: Arithmetic Mean Ki
Structures can show the parent of a compound that is named as a salt.
By convention, pKi is the negative base-10 log of a molar concentration.

Example cases with answers are listed next.
Cc1cnc(NC[C@H]2CCN(C(=O)OCc3ccc(Cl)cc3)CC2(F)F)cn1 [E1-21.33^B′, mesylate]; 7.96
FC(F)(F)c1ccc(C(F)(F)CN2CCC(Nc3ncnc4[nH]ccc34)CC2)nc1; 7.80

stdin: // Input: Cc1ccc(COC(=O)N2CC[C@@H](CNc3nccn4cnnc34)C(F)(F)C2)cc1 [E2-1.2^B′] . Output its pKi only.
stdout: 7.07

stdin: // Input: Cc1ccc(COC(=O)N2CC[C@H](CNc3cccnn3)C(F)(F)C2)cc1 [E1-24.2^B′] . Output its pKi only.
stdout: 8.55

stdin: // Input: Cc1cnc(NC[C@H]2CCN(C(=O)OCc3ccc(F)cc3)CC2(F)F)cn1 [E1-21.34^B′, mesylate] . Output its pKi only.
stdout: 7.80

====

# IC50 per record follows
# target-or-test-system: human NR1/NR2B (Homo sapiens (Human), UniProt Q05586+Q13224)
# experiment-notes: NR2B antagonist activity: calcium influx (Fluo-4) assay in HEK293 cells
# Type: cell-based
# stated-conditions: Table 1.1A; read-out: NR2B IC50
Your answer is read as µM, so omit the unit and give the number.

Example cases with answers are listed next.
FC(F)(F)c1ccc(C(F)(F)CN2CCC(Nc3ncnc4[nH]ccc34)CC2)cc1 [C-178^A′]; 0.064
FC(F)(F)c1ccc(C(F)(F)CN2CCC(Nc3ncnc4[nH]ccc34)CC2)cn1 [C-127^A′]; 0.045
Fc1cc(C(F)(F)F)cnc1C(F)(F)CN1CCC(Nc2ncnc3[nH]ccc23)CC1 [C-18^A′]; 0.084
FC(F)(F)c1ccc(C(F)(F)CN2CCC(Nc3ncnc4[nH]ccc34)CC2)nc1 [C-5^A′]; 0.03
Cc1ccc(C(F)(F)CN2CCC(N(C)c3ncnc4[nH]ccc34)CC2)nc1 [C-47^A′]; 0.14

Switching to the query record.
stdin: // Input: FC(F)c1ccc(C(F)(F)CN2CCC(Nc3ncnc4[nH]ccc34)CC2)nc1 [C-6^A′] . Output its IC50 only.
stdout: 0.031

====

# target-or-test-system: human NR1/NR2B (Homo sapiens (Human), UniProt Q05586+Q13224)
# experiment-notes: NR2B antagonist activity: calcium influx (Fluo-4) assay in HEK293 cells
# Assay type: cell-based
# stated-conditions: read-out: NR2B IC50; Table 1.4A
recorded-endpoint: IC50 (nM)
Your answer is read as nM, so omit the unit and give the number.

stdin: // Input: Fc1ccc(C(F)(F)CN2CCC(Nc3ncnc4[nH]ccc34)CC2)cc1 . Output its IC50 only.
stdout: 22

====

# target-or-test-system: human NR1/NR2B (Homo sapiens (Human), UniProt Q05586+Q13224)
# experiment-notes: NR2B antagonist activity: calcium influx (Fluo-4) assay in HEK293 cells
# Type: cell-based
# stated-conditions: read-out: hNR2B IC50; Table 1.3A
recorded-endpoint: IC50
For clarity, give the value followed by its unit.

Example cases with answers are listed next.
Cc1ccc(C(F)(F)CN2CCC(Nc3ncnc4[nH]ccc34)CC2)cn1 [C-128^A′]; 89 nM
Cc1cnc(C(F)(F)CN2CCC(Nc3ncnc4[nH]ccc34)CC2)cn1 [C-230^A′]; 88 nM
Fc1cc(Cl)cnc1C(F)(F)CN1CCC(Nc2ncnc3[nH]ccc23)CC1 [C-16^A′]; 47 nM

stdin: // Input: Fc1ccc(C(F)(F)CN2CCC(Nc3ncnc4[nH]ccc34)CC2)cc1 [C-175^A′] . Output its IC50 only.
stdout: 22 nM

stdin: // Input: Cc1ccc(C(F)(F)CN2CCC(Nc3ncnc4[nH]ccc34)CC2)nc1 [C-4^A′] . Output its IC50 only.
stdout: 35 nM

====

# target-or-test-system: CYP2D6 (Homo sapiens (Human), UniProt P10635)
# Sequence (P10635 whole entry): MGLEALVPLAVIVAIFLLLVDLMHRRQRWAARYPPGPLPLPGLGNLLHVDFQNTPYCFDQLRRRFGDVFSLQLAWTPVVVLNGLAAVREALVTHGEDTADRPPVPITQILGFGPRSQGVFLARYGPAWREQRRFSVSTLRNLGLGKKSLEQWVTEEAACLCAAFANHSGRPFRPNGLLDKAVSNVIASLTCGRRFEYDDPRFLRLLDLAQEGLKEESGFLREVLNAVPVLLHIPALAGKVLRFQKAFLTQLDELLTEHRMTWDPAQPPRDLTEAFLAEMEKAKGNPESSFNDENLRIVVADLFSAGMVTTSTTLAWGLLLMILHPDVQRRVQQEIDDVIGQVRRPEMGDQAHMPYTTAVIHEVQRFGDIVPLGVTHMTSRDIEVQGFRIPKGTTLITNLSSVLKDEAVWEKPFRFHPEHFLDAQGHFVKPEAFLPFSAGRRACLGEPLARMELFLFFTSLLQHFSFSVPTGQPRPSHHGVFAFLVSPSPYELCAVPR
# experiment-notes: CYP P450 enzyme inhibition in pooled human liver microsomes (dextromethorphan probe)
# Type: in vitro ADME
# stated-conditions: human, pooled human liver microsomes, pH 7.4, probe dextromethorphan, 5 μM; 10 μM; read-out: CYP2D6 Inhibiton at 10 μM
recorded-endpoint: inhibition at 10 min, 10 µM (%)
Your answer is read as %, so omit the unit and give the number.

Example cases with answers are listed next.
Cc1ccc(COC(=O)N2CC[C@H](CNc3cnccn3)C(F)(F)C2)cc1 [E1-21.2^B′]; 97
Cc1ccc(COC(=O)N2CC[C@H](CNc3cnc(C)cn3)C(F)(F)C2)cc1 [E1-21.26^B′]; 32
Cc1ccc(COC(=O)N2CC[C@H](CNc3ncc4cn[nH]c4n3)C(F)(F)C2)cc1 [E1-8.2^B′]; 83
O=C(OCc1ccc(Cl)cc1)N1CC[C@H](CNc2nccn3cnnc23)C(F)(F)C1 [E1-1.3^B′]; 37
CCc1ccc(COC(=O)N2CC[C@H](CNc3nccn4cnnc34)C(F)(F)C2)cc1 [E1-1.5^B′]; 28
Cc1ccc(COC(=O)N2CC[C@H](CNc3nccn4cnnc34)C(F)(F)C2)cc1 [E1-1.2^B′]; 14
Cc1ccc(COC(=O)N2CC[C@H](CNc3nc4ccccn4n3)C(F)(F)C2)cc1 [E1-9.2^B′]; 14

stdin: Enter inhibition at 10 min, 10 µM (test system CYP2D6 (Homo sapiens (Human), UniProt P10635)) for O=C(OCc1ccc(F)cc1)N1CC[C@H](CNc2nccn3cnnc23)C(F)(F)C1 [E1-1.4^B′]
stdout: 19

====

# target-or-test-system: CYP2D6 (Homo sapiens (Human))
# experiment-notes: CYP P450 enzyme inhibition in pooled human liver microsomes (dextromethorphan probe)
# Type: in vitro ADME
# stated-conditions: Table 1.4B
pIC50: −log10 of the molar value. Counter-ions that a name gives are not always drawn.
Label 0 if pIC50 falls below 5; label 1 in every other case.

For orientation, consider the following solved cases.
O=C(OC1Cc2ccccc2C1)N1CC[C@H](CNc2ncccn2)C(F)(F)C1 [III-E1-22.1^B′, methanesulfonate]; 0
Cc1ccc(COC(=O)N2CC[C@H](CNc3ccncc3)C(F)(F)C2)cc1 [E1-38.2^B′, methanesulfonate]; 1
O=C(OCc1ccc(F)cc1)N1CC[C@H](CNc2ncccn2)C(F)(F)C1 [E1-22.4^B′, methanesulfonate]; 0

stdin: Quick check: does Cc1ccc(COC(=O)N2CC[C@H](CNc3cccnn3)C(F)(F)C2)cc1 [E1-24.2^B′] have pIC50 greater than or equal to 5?
stdout: 0

stdin: Quick check: does CCc1ccc(COC(=O)N2CC[C@H](CNc3ncccn3)C(F)(F)C2)cc1 [E1-22.5^B′, methanesulfonate] have pIC50 greater than or equal to 5?
stdout: 0

stdin: Quick check: does Cc1ccc(COC(=O)N2CC[C@H](CNc3ncccn3)C(F)(F)C2)cc1 [E1-22.2^B′] have pIC50 greater than or equal to 5?
stdout: 0

stdin: Quick check: does Cc1ccc(COC(=O)N2CC[C@H](CNc3ccncn3)C(F)(F)C2)cc1 [E1-37.2^B′, methanesulfonate] have pIC50 greater than or equal to 5?
stdout: 1

stdin: Quick check: does O=C(OCc1ccc(C(F)F)cc1)N1CC[C@H](CNc2ncccn2)C(F)(F)C1 [E1-22.6^B′, mesylate] have pIC50 greater than or equal to 5?
stdout: 0

stdin: Quick check: does Cc1ccc(COC(=O)N2CC[C@H](CNc3ccccn3)C(F)(F)C2)cc1 [E1-23.2^B′] have pIC50 greater than or equal to 5?
stdout: 0

Reference source: patent US11752155B2
